Data provenance: the RNAGym collection of RNA variant scans (doi:10.1073/pnas.2313332121)

B1: TPR t1 (parent)
chain: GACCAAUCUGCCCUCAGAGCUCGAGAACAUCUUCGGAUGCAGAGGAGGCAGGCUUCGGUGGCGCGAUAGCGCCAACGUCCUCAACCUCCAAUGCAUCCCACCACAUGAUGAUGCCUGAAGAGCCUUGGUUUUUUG

Variants of: B1
Experiment: polymerase ribozyme fitness, log enrichment relative to wild type (log ratio); higher = more active; in vitro selection for triplet polymerase activity
Let's look at some variants and their measured polymerase ribozyme fitness (log ratio).
The answer should be written as a number, with no unit following it.

C8U U59G U96A G110U	-2.31

For the variant shown here, U9C C13G , give the reported polymerase ribozyme fitness (log ratio).
0.844

For the variant shown here, C11A G52C C56A , give the reported polymerase ribozyme fitness (log ratio).
-2.98
